Experiment: intramolecular Trp triplet quenching by Cys (photoinduced electron transfer, contact formation) in full-length measles virus NTAIL single C-W variants; nanosecond transient absorption (289 nm pump, 458 nm probe); tau_CW from 1/tau_CW = 1/tau_obs - 1/tau_0
Conditions: aqueous buffer: 15 mM Tris, 150 mM NaCl, 1 mM TCEP, pH 7.6, N2O-saturated; 0.1 mM; 20.0 °C; scale: us
recorded_endpoint: ring closure, rate
Answers are plain numbers.

[[record]]
substance = "H-GSTTEDKISRAVGPRQAQVSFLHGDQSENELPRLGGKEDRRVKQSRGEARESWRETGPSRASDARAAHLPTGTPLDIDTASESCQDPQDSRRSADALLRLQAMAGISEEQGSDTDTPIVYNDRNLLD-OH"
value_reported = 3.21

[[record]]
substance = "H-GSTTEDKISRAVGPRQAQVSFLHGDQSENELPRLGGKEDRRVKQSRGEARESYRETGPSRASDARAAHLPTGTPLDIDTASESCQDPQDSRRSADALLRLQAMAGISEEQGSDTDTPIVWNDRNLLD-OH"
value_reported = 7.6

[[record]]
substance = "H-GSTTEDKISRAVGPRQAQVSFLHGDQSENELPRLGGKEDRRVKQSRGEARESYRETGPSRASDARAAHLPTGTPLDIDTASESSQDPQDCRRSADALLRLQAMAGISEEQGSDTDTPIVWNDRNLLD-OH"
value_reported = 2.76

[[record]]
substance = "H-GSTTEDKICRAVGPRQAQVSFLHGDQSENELPRLGGKEDRRVKQSRGEARESWRETGPSRASDARAAHLPTGTPLDIDTASESSQDPQDSRRSADALLRLQAMAGISEEQGSDTDTPIVYNDRNLLD-OH"
value_reported = 6.63


## Task Give its ring closure, rate value. Item: H-GSTTEDKISRAVGPRQAQVSFLHGDQCENELPRLGGKEDRRVKQSRGEARESWRETGPSRASDARAAHLPTGTPLDIDTASESSQDPQDSRRSADALLRLQAMAGISEEQGSDTDTPIVYNDRNLLD-OH
## Result 3.1

Recorded values, source paper PMC12501004.
